Reference for the values: the supplement of paper PMC9023506

Reported startle response to 20-s acoustic pulses values for the following compounds.
Tested on: Danio rerio larvae (5 dpf)
Assay: startle response to 20-s acoustic pulses, difference vs DMSO (percentage points (treated minus DMSO)); higher = more of the behaviour than the DMSO vehicle control
Settings: 10 µM; exposure time: 3 h pre-incubation + 3 h imaging
Where a name gives a salt, the structure may show the parent alone.
I'd appreciate a reply containing only the number, no unit.

# count of solved cases: 6
In [3]: df
Out[3]:
                                   compound  measured_number
0  COCCCOc1cc(C[C@@H](C[C@H](N)[C@@H](O)C[C@H](C(=O)NCC(C)(C)C(N)=O)C(C)C)C(C)C)ccc1OC [Aliskiren hemifumarate]          -0.0432
1  Nc1nc(Cl)nc2c1ncn2[C@@H]1O[C@H](CO)[C@@H](O)[C@@H]1F             5.05
2  Cc1ccc(-c2cc(C(F)(F)F)nn2-c2ccc(S(N)(=O)=O)cc2)cc1            -6.81
3  COc1cc2nc(N3CCN(C(=O)c4ccco4)CC3)nc(N)c2cc1OC [Prazosin hydrochloride]             5.19
4  OCCN(CCO)c1nc(N2CCCCC2)c2nc(N(CCO)CCO)nc(N3CCCCC3)c2n1             6.96
5  CC(=O)S[C@@H]1CC2=CC(=O)CC[C@]2(C)[C@H]2CC[C@@]3(C)[C@@H](CC[C@@]34CCC(=O)O4)[C@H]12             1.64

API: the following record is the query input.
Request: Consider the compound COc1ccccc1OCCNCC(O)COc1cccc2[nH]c3ccccc3c12 (configuration not stated) and give its measured startle response to 20-s acoustic pulses.
Response: 4.96

====

Test system: Danio rerio larvae (5 dpf)
Test: optomotor response to green moving lines, difference vs DMSO (percentage points (treated minus DMSO)); higher = more of the behaviour than the DMSO vehicle control
Settings: 10 µM; exposure time: 3 h pre-incubation + 3 h imaging
Counter-ions that a name gives are not always drawn.
Item-by-item account of optomotor response to green moving lines
Please give the numeric answer without any surrounding text.

Reference set, count: 5
>>> print(df.to_string())
                                   molecule             target_of_assay                              readout_kind  measured_number
0  COc1c(C)c2c(c(O)c1C/C=C(\C)CCC(=O)OCCN1CCOCC1)C(=O)OC2 [Mycophenolate mofetil]  Danio rerio larvae (5 dpf)  optomotor response to green moving lines             4.99
1  CC[C@H](C)C(=O)O[C@H]1C[C@@H](C)C=C2C=C[C@H](C)[C@H](CC[C@@H]3C[C@@H](O)CC(=O)O3)[C@H]21 [Lovastatin]  Danio rerio larvae (5 dpf)  optomotor response to green moving lines            -3.13
2  Clc1ccc(COC(Cn2ccnc2)c2ccc(Cl)cc2Cl)c(Cl)c1 (stereo not drawn) [Miconazole nitrate]  Danio rerio larvae (5 dpf)  optomotor response to green moving lines            -5.21
3  Cc1ccc(N(CC2=NCCN2)c2cccc(O)c2)cc1 [Phentolamine Mesylate]  Danio rerio larvae (5 dpf)  optomotor response to green moving lines             5.31
4  NS(=O)(=O)c1cc2c(cc1Cl)NC(C1CC3C=CC1C3)NS2(=O)=O (stereo not drawn) [Cyclothiazide]  Danio rerio larvae (5 dpf)  optomotor response to green moving lines            0.907

Request: Endpoint output: optomotor response to green moving lines of C#C[C@]1(O)CC[C@H]2[C@@H]3CCC4=CC(=O)CC[C@@H]4[C@H]3CC[C@@]21CC [Levonorgestrel] . Value?
Response: 5.26

Request: Which measured optomotor response to green moving lines value corresponds to CN(C)CCC[C@@]1(c2ccc(F)cc2)OCc2cc(C#N)ccc21 [Escitalopram oxalate] ?
Response: 1.9

Request: Would you mind telling me what optomotor response to green moving lines value was observed for N#Cc1ccc(C(c2ccc(C#N)cc2)n2cncn2)cc1 [Letrozole] ?
Response: 6.3

====

Test system: Danio rerio larvae (5 dpf)
Test: activity during period 15 (no stimuli), difference vs DMSO (percentage points (treated minus DMSO)); higher = more of the behaviour than the DMSO vehicle control
Conditions: 10 µM; exposure time: 3 h pre-incubation + 3 h imaging
Where a name gives a salt, the structure may show the parent alone.
READOUT_KIND: activity during period 15
Just the number, please, no unit after it.

COMPOUND	activity during period 15
CN(C)CCc1c[nH]c2ccc(C[C@H]3COC(=O)N3)cc12	2.6
N#Cc1ccc(C(c2ccc(C#N)cc2)n2cncn2)cc1	0.514
Clc1ccccc1C(c1ccccc1)(c1ccccc1)n1ccnc1	-30.5
CC(C)C(=O)OCC(=O)[C@@]12O[C@H](C3CCCCC3)O[C@@H]1C[C@H]1[C@@H]3CCC4=CC(=O)C=C[C@]4(C)[C@H]3[C@@H](O)C[C@@]12C [Ciclesonide]	-5.84
Nc1cc(N2CCCCC2)nc(N)[n+]1[O-]	6.89

Request: Using the record for CN(C)CCC[C@@]1(c2ccc(F)cc2)OCc2cc(C#N)ccc21 [Escitalopram oxalate] , report its activity during period 15.
Response: -18.3

Request: Quick one: activity during period 15 for CC(=O)S[C@@H]1CC2=CC(=O)CC[C@]2(C)[C@H]2CC[C@@]3(C)[C@@H](CC[C@@]34CCC(=O)O4)[C@H]12 ?
Response: -1.27

Request: Look at this compound and give its reported activity during period 15. CC(C)C(=O)Nc1ccc([N+](=O)[O-])c(C(F)(F)F)c1 [Flutamide]
Response: -0.963

Request: Entry Cc1c(-c2ccc(O)cc2)n(Cc2ccc(OCCN3CCCCCC3)cc2)c2ccc(O)cc12 [Bazedoxifene acetate] has what activity during period 15?
Response: -15.7

====

System: Danio rerio larvae (5 dpf)
Assay: optomotor response to red moving lines, difference vs DMSO (percentage points (treated minus DMSO)); higher = more of the behaviour than the DMSO vehicle control
Settings: 10 µM; exposure time: 3 h pre-incubation + 3 h imaging
Where a name gives a salt, the structure may show the parent alone.
READOUT_KIND: optomotor response to red moving lines
Answer with a number only.

Consider the reported optomotor response to red moving lines for these compounds:
COMPOUND	READOUT_KIND	MEASURED_NUMBER
COc1ccc(C[C@@H](C)NC[C@H](O)c2ccc(O)c(NC=O)c2)cc1 [Arformoterol tartrate]	optomotor response to red moving lines	-7.51
COc1cc(Nc2c(C#N)cnc3cc(OCCCN4CCN(C)CC4)c(OC)cc23)c(Cl)cc1Cl	optomotor response to red moving lines	3.82
CCCCNc1cc(C(=O)O)cc(S(N)(=O)=O)c1Oc1ccccc1 [Bumetanide]	optomotor response to red moving lines	19.3
Cc1c(-c2ccc(O)cc2)n(Cc2ccc(OCCN3CCCCCC3)cc2)c2ccc(O)cc12 [Bazedoxifene acetate]	optomotor response to red moving lines	9.09
CC(=O)Oc1ccccc1C(=O)O	optomotor response to red moving lines	7.38
Nc1cc(N2CCCCC2)nc(N)[n+]1[O-]	optomotor response to red moving lines	-13.4

Request: Returns the measured optomotor response to red moving lines for the input compound. Input: CO[C@H]1/C=C/O[C@@]2(C)Oc3c(C)c(O)c4c(O)c(c5c(nc6cc(C)ccn65)c4c3C2=O)NC(=O)/C(C)=C\C=C\[C@H](C)[C@H](O)[C@@H](C)[C@@H](O)[C@@H](C)[C@H](OC(C)=O)[C@@H]1C
Response: 0.313

Request: Return reported optomotor response to red moving lines; argument: N#Cc1ccc(C(c2ccc(C#N)cc2)n2cncn2)cc1
Response: -12.7

Request: Would you mind telling me what optomotor response to red moving lines value was observed for CCC(C)(C)C(=O)O[C@H]1C[C@@H](C)C=C2C=C[C@H](C)[C@H](CC[C@@H]3C[C@@H](O)CC(=O)O3)[C@H]21 ?
Response: -5.54

====

Test system: Danio rerio larvae (5 dpf)
Test: startle response to 20-s acoustic pulses, difference vs DMSO (percentage points (treated minus DMSO)); higher = more of the behaviour than the DMSO vehicle control
Settings: 10 µM; exposure time: 3 h pre-incubation + 3 h imaging
Where a name gives a salt, the structure may show the parent alone.
READOUT_KIND: startle response to 20-s acoustic pulses

Answered cases to consult:
MOLECULE	TARGET_OF_ASSAY	startle response to 20-s acoustic pulses
CCc1ccc(CCOc2ccc(CC3SC(=O)NC3=O)cc2)nc1 (configuration not stated) [Pioglitazone hydrochloride]	Danio rerio larvae (5 dpf)	-3.21
CCOC(=O)[C@H](CCc1ccccc1)N[C@@H](C)C(=O)N1[C@H](C(=O)O)C[C@@H]2CCC[C@@H]21	Danio rerio larvae (5 dpf)	-1.54
Cc1c(-c2ccc(O)cc2)n(Cc2ccc(OCCN3CCCCCC3)cc2)c2ccc(O)cc12 [Bazedoxifene acetate]	Danio rerio larvae (5 dpf)	-4.17

Request: I would be grateful if you could share the reported startle response to 20-s acoustic pulses for Nc1nc(NC2CC2)c2ncn([C@H]3C=C[C@@H](CO)C3)c2n1 [Abacavir hemisulfate] .
Response: 6.56

Request: Which startle response to 20-s acoustic pulses is listed for COc1cccc2c1C(=O)c1c(O)c3c(c(O)c1C2=O)C[C@@](O)(C(=O)CO)C[C@@H]3O[C@H]1C[C@H](N)[C@H](O)[C@H](C)O1 [Doxorubicin hydrochloride] ?
Response: 3.62

Request: So what does the record say about startle response to 20-s acoustic pulses for C[C@@H]1C[C@H]2[C@@H]3CCC4=CC(=O)C=C[C@]4(C)[C@@]3(F)[C@@H](O)C[C@]2(C)[C@@]1(O)C(=O)CO ?
Response: -1.79

Request: startle response to 20-s acoustic pulses lookup needed for CCCCNc1cc(C(=O)O)cc(S(N)(=O)=O)c1Oc1ccccc1 [Bumetanide] , thanks.
Response: 3.98

Request: Give the measured startle response to 20-s acoustic pulses of CC(C)N(CCCCOCC(=O)NS(C)(=O)=O)c1cnc(-c2ccccc2)c(-c2ccccc2)n1 .
Response: -1.31

Request: What value of startle response to 20-s acoustic pulses has been reported for the following molecule? C=C1[C@H](CO)[C@@H](O)C[C@@H]1n1cnc2c(=O)[nH]c(N)nc21
Response: 3.11

Request: Dear colleague, I am looking for the recorded startle response to 20-s acoustic pulses of the following molecule: CC(c1cc2ccccc2s1)N(O)C(N)=O (configuration not stated)
Response: -2.9

Request: GET /values?readout=startle response to 20-s acoustic pulses&item= Brc1c(NC2=NCCN2)ccc2nccnc12
Response: -4.57

Request: I would be grateful if you could share the reported startle response to 20-s acoustic pulses for CC(CCc1ccc(O)cc1)NCCc1ccc(O)c(O)c1 (configuration not stated) [Dobutamine hydrochloride] .
Response: 2.42

Request: GET /values?readout=startle response to 20-s acoustic pulses&item= C[C@@H](O[C@H]1OCCN(Cc2n[nH]c(=O)[nH]2)[C@H]1c1ccc(F)cc1)c1cc(C(F)(F)F)cc(C(F)(F)F)c1 [Aprepitant]
Response: -6.92

Request: What value of measured startle response to 20-s acoustic pulses is listed for CC(=O)Nc1ccc(O)cc1 ?
Response: -1.63
